Hey, just so you know, these numbers are from ChEMBL document CHEMBL4622986.

Reported CC50 at 192 h values for the following molecules.
experiment: Cytotoxicity against human HuH7 cells incubated for 8 days by cellTiter-Glo assay; format: cell-based, Huh-7

molecule | CC50 at 192 h
CCOc1nc(N)nc2c1ncn2[C@@H]1O[C@](F)(COP(=O)(N[C@@H](C)C(=O)OC(C)C)Oc2ccccc2)[C@@H](O)[C@@]1(C)F (some centres not stated) | > 100000 nM
CCOc1nc(N)nc2c1ncn2[C@@H]1O[C@H](COP(=O)(N[C@@H](C)C(=O)OCC(C)(C)C)Oc2cccc3ccccc23)[C@@H](O)[C@@]1(C)O (some centres not stated) | 350 nM

---

assay: Selectivity index, ratio of CC50 for human HuH7 cells infected with HCV con1 subgenomic replicon to EC50 for HCV con1 subgenomic replicon; format: toxicity; conditions: read-out: Ratio CC50/EC50
Listing: selectivity ratio of selected molecules

molecule | selectivity ratio
CCOc1nc(N)nc2c1ncn2[C@@H]1O[C@H](COP(=O)(N[C@@H](C)C(=O)OCC(C)(C)C)Oc2cccc3ccccc23)[C@@H](O)[C@@]1(C)O (stereo partly drawn) | 47.1
CCOc1nc(N)nc2c1ncn2[C@@H]1O[C@](F)(COP(=O)(N[C@@H](C)C(=O)OC2CCCC2)Oc2ccccc2)[C@@H](O)[C@@]1(C)F (stereo partly drawn) | 2700
CCOc1nc(N)nc2c1ncn2[C@@H]1O[C@](F)(COP(=O)(N[C@@H](C)C(=O)OC(C)C)Oc2ccccc2)[C@@H](O)[C@@]1(C)F (stereo partly drawn) | > 7000
CCOc1nc(N)nc2c1ncn2[C@@H]1O[C@](F)(COP(=O)(N[C@@H](C)C(=O)OCC(C)C)Oc2ccccc2)[C@@H](O)[C@@]1(C)F (stereo partly drawn) | > 2000
CCOc1nc(N)nc2c1ncn2[C@@H]1O[C@]2(F)COP(=O)(OCC(C)C)O[C@H]2[C@@]1(C)F (stereo partly drawn) | > 74
CCOc1nc(N)nc2c1ncn2[C@@H]1O[C@](F)(COP(=O)(N[C@@H](C)C(=O)OC(CC)CC)Oc2ccccc2)[C@@H](O)[C@@]1(C)F (stereo partly drawn) | 315
CCOc1nc(N)nc2c1ncn2[C@@H]1O[C@](F)(CO[P@](=O)(N[C@@H](C)C(=O)OC(C)C)Oc2ccccc2)[C@@H](O)[C@@]1(C)F | > 1700
CCOc1nc(N)nc2c1ncn2[C@@H]1O[C@](F)(COP(=O)(N[C@@H](C)C(=O)OC2CCCCC2)Oc2ccccc2)[C@@H](O)[C@@]1(C)F (stereo partly drawn) | > 1500
CCOc1nc(N)nc2c1ncn2[C@@H]1O[C@]2(F)COP(=O)(OCC)O[C@H]2[C@@]1(C)F (stereo partly drawn) | > 322
CCOc1nc(N)nc2c1ncn2[C@@H]1O[C@](F)(CO[P@@](=O)(N[C@@H](C)C(=O)OC(C)C)Oc2ccccc2)[C@@H](O)[C@@]1(C)F | > 20000
CCOc1nc(N)nc2c1ncn2[C@@H]1O[C@]2(F)COP(=O)(OC(C)C)O[C@H]2[C@@]1(C)F (stereo partly drawn) | > 3000
CCOc1nc(N)nc2c1ncn2[C@@H]1O[C@](F)(COP(=O)(N[C@@H](C)C(=O)OCC(C)C)Oc2cccc3ccccc23)[C@@H](O)[C@@]1(C)F (stereo partly drawn) | 3000
CCOc1nc(N)nc2c1ncn2[C@@H]1O[C@](F)(COP(=O)(N[C@@H](C)C(=O)OC(C)C)Oc2cccc3ccccc23)[C@@H](O)[C@@]1(C)F (stereo partly drawn) | 4000

---

test: Cytotoxicity against human HuH7 cells infected with HCV con1 subgenomic replicon assessed as reduction in cell viability measured after 3 days by CellTiter-blue cell viability assay; type: cell-based, Huh-7
readoutName: CC50 at 72 h (µM)

compound | valueUnit | cmp | resultValue
CCOc1nc(N)nc2c1ncn2[C@@H]1O[C@](F)(COP(=O)(N[C@@H](C)C(=O)OC(C)C)Oc2cccc3ccccc23)[C@@H](O)[C@@]1(C)F (stereo partly drawn) | µM | = | 80.5
CCOc1nc(N)nc2c1ncn2[C@@H]1O[C@](F)(COP(=O)(N[C@@H](C)C(=O)OC(C)C)Oc2ccccc2)[C@@H](O)[C@@]1(C)F (stereo partly drawn) | µM | > | 100
C#C[C@]1(O)[C@H](n2cnc3c(OCC)nc(N)nc32)O[C@](F)(COP(=O)(N[C@@H](C)C(=O)OC2CCCCC2)Oc2ccccc2)[C@H]1O (stereo partly drawn) | µM | = | 16.4

---

tested on: Hepatitis C virus; assay: Antiviral activity against HCV con1 subgenomic replicon infected in human HuH7 cells assessed as reduction in viral RNA level by qRT-PCR analysis; format: functional, organism-based, Hepacivirus hominis; conditions: isolate Con1, Huh-7
Decision: EC50 beneath 40 nM gives criterion met; EC50 meeting or exceeding 40 nM gives criterion not met.

molecule | groupLabel
CCOc1nc(N)nc2c1ncn2[C@@H]1O[C@]2(F)COP(=O)(OC(C)C)O[C@H]2[C@@]1(C)F (stereo not given in full) | criterion met
CCOc1nc(N)nc2c1ncn2[C@@H]1O[C@](F)(COP(=O)(N[C@@H](C)C(=O)OC2CCCCC2)Oc2ccccc2)[C@@H](O)[C@@]1(C)O (stereo not given in full) | criterion met
CCOc1nc(N)nc2c1ncn2[C@@H]1O[C@](F)(COP(=O)(N[C@@H](C)C(=O)OCC(C)C)Oc2ccccc2)[C@@H](O)[C@@]1(C)F (stereo not given in full) | criterion not met
CCOc1nc(N)nc2c1ncn2[C@@H]1O[C@H](COP(=O)(N[C@@H](C)C(=O)OCC(C)(C)C)Oc2cccc3ccccc23)[C@@H](O)[C@@]1(C)O (stereo not given in full) | criterion not met
CCOc1nc(N)nc2c1ncn2[C@@H]1O[C@](F)(CO[P@@](=O)(N[C@@H](C)C(=O)OC(C)C)Oc2ccccc2)[C@@H](O)[C@@]1(C)F | criterion met
C#C[C@]1(F)[C@H](n2cnc3c(OCC)nc(N)nc32)O[C@](F)(COP(=O)(N[C@@H](C)C(=O)OC2CCCCC2)Oc2ccccc2)[C@H]1O (stereo not given in full) | criterion not met
CCOc1nc(N)nc2c1ncn2[C@@H]1O[C@](F)(COP(=O)(N[C@@H](C)C(=O)OC(C)C)Oc2ccccc2)[C@@H](O)[C@@]1(C)F (stereo not given in full) | criterion met
CCOc1nc(N)nc2c1ncn2[C@@H]1O[C@]2(F)COP(=O)(OCC(C)C)O[C@H]2[C@@]1(C)F (stereo not given in full) | criterion not met
CCOc1nc(N)nc2c1ncn2[C@@H]1O[C@](F)(COP(=O)(N[C@@H](C)C(=O)OC2CCCCC2)Oc2ccccc2)[C@@H](O)[C@@]1(C)F (stereo not given in full) | criterion not met
C#C[C@]1(O)[C@H](n2cnc3c(OCC)nc(N)nc32)O[C@](F)(COP(=O)(N[C@@H](C)C(=O)OC2CCCCC2)Oc2ccccc2)[C@H]1O (stereo not given in full) | criterion not met

---

Each entry below carries its recorded CC50 at 192 h.
assay: Cytotoxicity against human U937 cells incubated for 8 days by cellTiter-Glo assay; assay type: cell-based, U-937

compound | CC50 at 192 h
CCOc1nc(N)nc2c1ncn2[C@@H]1O[C@](F)(COP(=O)(N[C@@H](C)C(=O)OC(C)C)Oc2ccccc2)[C@@H](O)[C@@]1(C)F (some centres not stated) | 10 µM
CCOc1nc(N)nc2c1ncn2[C@@H]1O[C@H](COP(=O)(N[C@@H](C)C(=O)OCC(C)(C)C)Oc2cccc3ccccc23)[C@@H](O)[C@@]1(C)O (some centres not stated) | 0.17 µM

---

Catalogue of CC50 at 192 h readings, one per entry.
experiment: Cytotoxicity against human HeLa cells incubated for 8 days by cellTiter-Glo assay; assay type: cell-based

molecule | valueUnit | cmp | CC50 at 192 h
CCOc1nc(N)nc2c1ncn2[C@@H]1O[C@H](COP(=O)(N[C@@H](C)C(=O)OCC(C)(C)C)Oc2cccc3ccccc23)[C@@H](O)[C@@]1(C)O (some centres not stated) | µM | = | 13.4
CCOc1nc(N)nc2c1ncn2[C@@H]1O[C@](F)(COP(=O)(N[C@@H](C)C(=O)OC(C)C)Oc2ccccc2)[C@@H](O)[C@@]1(C)F (some centres not stated) | µM | > | 100

---

assay: Cytotoxicity against human HuH7 cells infected with HCV con1 subgenomic replicon assessed as reduction in cell viability measured after 3 days by CellTiter-blue cell viability assay; type: cell-based, Huh-7

compound | valueUnit | cmp | CC50 at 72 h
CCOc1nc(N)nc2c1ncn2[C@@H]1O[C@](F)(COP(=O)(N[C@@H](C)C(=O)OCC(C)C)Oc2cccc3ccccc23)[C@@H](O)[C@@]1(C)F (stereo partly drawn) | µM | = | 56.9
CCOc1nc(N)nc2c1ncn2[C@@H]1O[C@](F)(CO[P@](=O)(N[C@@H](C)C(=O)OC(C)C)Oc2ccccc2)[C@@H](O)[C@@]1(C)F | µM | > | 100
CCOc1nc(N)nc2c1ncn2[C@@H]1O[C@](F)(COP(=O)(N[C@@H](C)C(=O)OC(CC)CC)Oc2ccccc2)[C@@H](O)[C@@]1(C)F (stereo partly drawn) | µM | = | 72.5
